The reported measurements were obtained from the Kinase Knowledgebase extract (Sharma et al. 2016).

Entries and their IC50 values follow.
- subject-of-test: MAPK14;MAPK11;MAPK12 (human) (UniProt Q16539)
- assay-comment: Inhibition of p38 Kinase Activity

{"molecule": "CNc1nc(NCCOC(C)C)nc(Nc2ccc3ncsc3c2)n1", "assay-readout": "IC50", "result": "< 10000 nM"}
{"molecule": "CC1(C)[C@H]2CC[C@H](CNc3nc(Cl)nc(Nc4ccc5ncsc5c4)n3)[C@@H]1C2", "assay-readout": "IC50", "result": "< 10000 nM"}
{"molecule": "COC1CCCC(C(=O)N(C)CCCN(C)c2nc(NCC(C)c3ccccc3)nc(Nc3ccc4ncsc4c3)n2)C1 (stereo not drawn)", "assay-readout": "IC50", "result": "< 10000 nM"}

Summary for this molecule, CC(CN(C)c1nc(Nc2ccc3ncsc3c2)nc(N(C)C)n1)c1ccccc1 (stereo not drawn) : IC50 is < 10000 nM

Entry Cc1ccc(C(N)=O)cc1Nc1nc(NC2CCCC2)nc(NC2CCN(Cc3ccccc3)C2)n1 (stereo not drawn) , IC50 reported as < 1000 nM

Kindly note the recorded IC50 for `Cc1ccc(C(=O)NC2CCCC2)cc1Nc1nc(N[C@H]2CCNC2)nc(N(C)CC(C)(C)C)n1` , which is < 1000 nM

Measured IC50, CC(CNc1nc(Nc2ccc3ncsc3c2)nc(N(C)CCCN(C)S(=O)(=O)N(C)C)n1)c1ccccc1 (stereo not drawn) : < 10000 nM

// recorded IC50 for Cc1ccc(C(N)=O)cc1Nc1nc(N[C@H]2CCN(C(C#N)c3ccccc3)C2)nc(N(C)CC(C)(C)C)n1 (stereo partly drawn) : < 1000 nM

Quick note, IC50 for `CNC(=O)c1ccc(C)c(Nc2nc(N[C@H]3CCN(Cc4ccccc4OC)C3)nc(N(C)CC(C)C)n2)c1` landed at < 1000 nM

IC50 recorded for this molecule, `Cc1ccc(C(N)=O)cc1Nc1nc(N[C@H]2CCN(Cc3ccccc3O)C2)nc(N(C)CC(C)C)n1` , is < 1000 nM

The reported IC50 of the molecule `CONC(=O)c1ccc(C)c(Nc2nc(NCCn3cccn3)nc(N(C)CC(C)(C)C)n2)c1` was < 1000 nM

----------
- subject-of-test: MAPK14;MAPK11;MAPK12 (human) (UniProt Q16539)
- assay-comment: Inhibition of p38 Kinase Activity
assay-readout: IC50

{"molecule": "CC1(C)[C@H]2CC[C@@H](CNc3nc(Nc4ccc5ncsc5c4)nc(N4CCNCC4)n3)[C@@H]1C2", "result": "< 10 µM"}
{"molecule": "CC(C)NC(=O)N1CCN(c2nc(NCC(C)c3ccccc3)nc(Nc3ccc4ncsc4c3)n2)CC1 (centres undefined)", "result": "< 10 µM"}
{"molecule": "Cc1ccc(C(=O)Nc2ccccc2)cc1Nc1nc(N[C@H]2CCNC2)nc(N(C)CC(C)C)n1", "result": "< 1 µM"}
{"molecule": "CC1(C)C2CCC(CNc3nc(Nc4ccc5ncsc5c4)nc(N4CCC(C(N)=O)CC4)n3)C1C2 (centres undefined)", "result": "< 10 µM"}
{"molecule": "c1nc2ccc(Nc3nc(CCC4CCCCC4)nc(N4CCNCC4)n3)cc2s1", "result": "< 10 µM"}
{"molecule": "COCC(=O)N(C)CCCN(C)c1nc(NCC(C)c2ccccc2)nc(Nc2ccc3ncsc3c2)n1 (centres undefined)", "result": "< 10 µM"}

Noted IC50 for `Cc1ccc(C(N)=O)cc1Nc1nc(N[C@H]2CCNC2)nc(OCC(C)(C)C)n1` , tested on MAPK14;MAPK11;MAPK12 (human) (UniProt Q16539): < 1 µM

Short answer on MAPK14;MAPK11;MAPK12 (human) (UniProt Q16539) for `Cc1ccc(C(=O)NC#N)cc1Nc1nc(N[C@H]2CCNC2)nc(N(C)CC(C)(C)C)n1` , IC50: < 1 µM

Record Cc1ccc(CN2CCC(Nc3nc(Nc4cc(C(N)=O)ccc4C)nc(N(C)CC(C)C)n3)C2)c(C)c1 (centres undefined) has MAPK14;MAPK11;MAPK12 (human) (UniProt Q16539) IC50 equal to < 1 µM

----------
- subject-of-test: UniProtKB Q16539
- assay-comment: Inhibition of p38 Kinase Activity
pIC50: −log10 of the molar value.
# pIC50 per entry

Worked examples follow.
{"compound": "COCC(=O)N1CCN(c2nc(NCC(C)c3ccccc3)nc(Nc3ccc4ncsc4c3)n2)CC1 (centres undefined)", "result": "> 5.00"}
{"compound": "CC(C)C(=O)N(C)CCCN(C)c1nc(NCC(C)c2ccccc2)nc(Nc2ccc3ncsc3c2)n1 (centres undefined)", "result": "> 5.00"}

Turning to the following compound.
Form: compound = CC1(C)C2CCC(CNc3nc(Nc4ccc5scnc5c4)nc(N4CCNCC4)n3)C1C2 (centres undefined) ; pIC50 = > 5.00

----------
Below is a list of entries, each paired with its recorded IC50 value.
- subject-of-test: MAPK14;MAPK11;MAPK12 (human)
- assay-comment: Inhibition of p38 Kinase Activity

{"molecule": "Cc1ccc(C(N)=O)cc1Nc1nc(Cl)nc(N[C@@H]2CCNC2)n1", "result": "< 1000 nM"}
{"molecule": "CONC(=O)c1ccc(C)c(Oc2nc(N(C)CC(C)(C)C)nc(N3CCCN(C)CC3)n2)c1", "result": "< 30000 nM"}
{"molecule": "Cc1ccc(C(N)=O)cc1Nc1nc(N[C@H]2CCN(Cc3ccc(O)cc3)C2)nc(N(C)CC(C)(C)C)n1", "result": "< 1000 nM"}
{"molecule": "CCCC1(C)CCN(c2nc(Nc3cc(C(=O)NC)ccc3C)nc(N[C@@H]3CCNC3)n2)C1 (some centres undefined)", "result": "< 1000 nM"}
{"molecule": "CONC(=O)c1ccc(C)c(Nc2nc(N(C)CC(C)(C)C)nc(N3CCNCC3)n2)c1", "result": "< 1000 nM"}
{"molecule": "CCCc1nc(NCc2ccc(S(N)(=O)=O)cc2)nc(Nc2cccc(-c3ccccc3)c2)n1", "result": "< 10000 nM"}

// sample `Cc1ccc(C(N)=O)cc1Nc1nc(N[C@@H]2CCNC2)nc(N(C)CC2(C)CCCC2)n1` , its IC50 was < 1000 nM

IC50 for `CNC(=O)c1ccc(C)c(Nc2nc(N[C@H]3CCN(C(C)C)C3)nc(N(C)CC(C)(C)C)n2)c1` is < 1000 nM

Record summary for `CNc1nc(NCc2ccccc2OC)nc(Nc2ccc3ncsc3c2)n1` : reported IC50 = < 10000 nM

----------
- subject-of-test: MAPK14;MAPK11;MAPK12 (human) (UniProt Q16539)
- assay-comment: Inhibition of p38 Kinase Activity
pIC50: −log10 of the molar value.
Measured pIC50 accompanies every entry in the list below.

// below: answered molecules
{"molecule": "C[C@H](CNc1nc(Nc2ccc3ncsc3c2)nc(N(C)CCN(C)C(=O)CCC(=O)O)n1)c1ccccc1", "pIC50": "> 5.00"}
{"molecule": "Cc1ccc(C(N)=O)cc1Nc1nc(N[C@@H]2CCNC2)nc(N(C)C2CCCC2)n1", "pIC50": "> 6.00"}
{"molecule": "COCC(C)N1CC[C@@H](Nc2nc(Nc3cc(C(N)=O)ccc3C)nc(N(C)CC(C)(C)C)n2)C1 (some centres not stated)", "pIC50": "> 6.00"}
{"molecule": "CCNC(=O)c1ccc(C)c(Nc2nc(N[C@H]3CCNC3)nc(N(C)CC3CCCC3)n2)c1", "pIC50": "> 6.00"}
{"molecule": "Cc1ccc(C(N)=O)cc1Nc1nc(N[C@@H]2CCNC2)nc(N2CCC(C)(C)CC2)n1", "pIC50": "> 6.00"}
{"molecule": "CC(CNc1nc(Cl)nc(Nc2ccc3ncsc3c2)n1)c1ccccc1 (configuration not stated)", "pIC50": "> 5.00"}

pIC50 for `Cc1ccc(C(N)=O)cc1Nc1nc(N[C@H]2CCN(Cc3ccc(Cl)cc3)C2)nc(N(C)CC(C)C)n1` is > 6.00

Notebook: `CNCCCN(C)c1nc(NC[C@@H]2CC[C@H]3C[C@@H]2C3(C)C)nc(Nc2ccc3ncsc3c2)n1` , pIC50 read as > 5.00

Sample `CN(C)c1nc(Nc2ccc3ncsc3c2)nc(NC(C)(C)Cc2ccccc2)n1` ; pIC50 observed: > 5.00

For reference, reported pIC50 for `CNC(=O)c1ccc(C(F)(F)F)c(Nc2nc(N[C@H]3CCNC3)nc(N(C)CC(C)(C)C)n2)c1` stands at > 6.00

Looking up `Cc1cccc(NC(=O)c2ccc(C)c(Nc3nc(N[C@H]4CCNC4)nc(N(C)CC(C)(C)C)n3)c2)c1` , I found its pIC50 recorded as > 6.00

Reported pIC50 for Cc1ccc(C(N)=O)cc1Nc1nc(NC2CCN(C(C)(C)C)C2)nc(N(C)CC(C)C)n1 (configuration not stated) was > 6.00

For Cc1ccc(C(N)=O)cc1Nc1cc(NC(C)c2ccccc2)nc(NCC(N)=O)n1 (configuration not stated) the molecule record lists pIC50 as > 6.00

Note to self: pIC50 recorded for `Cc1ccc(-c2ncc[nH]2)cc1Nc1nc(N(C)CC(C)(C)C)nc(N2CCCN(C)CC2)n1` was > 6.00

Item: `Cc1ccc(C(N)=O)cc1Nc1nc(N[C@H]2CCCC[C@H]2O)nc(N(C)CC(C)C)n1` | pIC50: > 6.00

# pIC50 of `Cc1cc2c(cc1Nc1nc(N[C@H]3CCNC3)nc(N(C)CC(C)(C)C)n1)C(=O)NC2` = > 6.00

The reported value for `CNCCN(C)c1nc(NCc2ccc(F)cc2F)nc(Nc2ccc3ncsc3c2)n1` in terms of pIC50 is > 5.00

Value of measured pIC50 for the entry `Cc1ccccc1NC(=O)c1ccc(C)c(Nc2nc(N[C@H]3CCNC3)nc(N(C)CC(C)(C)C)n2)c1` : > 6.00

For reference, reported pIC50 for O=C(O)CCC(=O)N1CCN(c2nc(Nc3ccc4ncsc4c3)nc(NC3CCc4ccccc43)n2)CC1 (configuration not stated) stands at > 5.00

Memo: `O=C(O)CCC(=O)N1CCN(c2nc(Nc3ccc4ncsc4c3)nc(N3CCc4ccccc4C3)n2)CC1` , reported pIC50: > 5.00

Briefly, pIC50 measured for `NC(=O)C1CCN(c2nc(Nc3ccc4ncsc4c3)cc(NC3CCC3)n2)CC1` : > 5.00

// pIC50 value for CC(CNc1nc(Nc2ccc3ncsc3c2)nc(N2CCCCC2)n1)c1ccccc1 (configuration not stated) : > 5.00
